Tested on: MDA-MB-231
measurement_description: Antiproliferative activity against human MDA-MB-231 cells assessed as reduction in cell viability incubated for 72 hrs by WST-8 assay
Type: functional, cell-based
condition_notes: MDA-MB-231, 72 h
measured_metric: IC50

For orientation, consider the following solved cases.
1) O=C(CCCCCCn1cc(C(=O)NC2CCCCC2)c2ccccc21)NO ... > 100 µM
2) COc1ccc2c(c1)cc(C(=O)NC1C3CC4CC(C3)CC1C4)n2CCCCCCC(=O)NO (stereo not given) ... 0.46 µM
3) O=C(CCCCCCn1cc(C(=O)NCc2ccc(Cl)cc2)c2ccccc21)NO ... > 100 µM
4) O=C(CCCCCCn1c(C(=O)NC2C3CC4CC(C3)CC2C4)cc2ccccc21)NO (stereo not given) ... 42.6 µM

Sample O=C(CCCCCCn1cc(C(=O)Nc2ccc(Cl)cc2Cl)c2ccccc21)NO — what was its IC50?
16.2 µM

###

Lab note: IC50 readings collected with Histone deacetylase 1 (Homo sapiens, UniProt Q13547) for the following compounds.
Sequence (Q13547 whole entry): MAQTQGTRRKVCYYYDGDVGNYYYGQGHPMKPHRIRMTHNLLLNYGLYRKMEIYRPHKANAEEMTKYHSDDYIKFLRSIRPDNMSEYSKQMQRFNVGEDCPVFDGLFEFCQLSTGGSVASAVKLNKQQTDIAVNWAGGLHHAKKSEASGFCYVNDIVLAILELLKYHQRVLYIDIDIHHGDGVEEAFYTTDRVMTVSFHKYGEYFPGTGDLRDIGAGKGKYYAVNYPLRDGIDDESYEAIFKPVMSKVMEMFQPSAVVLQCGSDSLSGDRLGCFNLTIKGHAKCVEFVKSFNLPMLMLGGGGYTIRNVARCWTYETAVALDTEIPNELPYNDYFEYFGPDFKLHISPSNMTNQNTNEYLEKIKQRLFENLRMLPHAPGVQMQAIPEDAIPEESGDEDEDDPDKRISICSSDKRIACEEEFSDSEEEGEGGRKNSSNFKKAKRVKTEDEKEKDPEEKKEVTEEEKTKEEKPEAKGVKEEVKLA
Quick note: give the figure in nM, leave out the unit.

What IC50 appears in the records for this compound with Histone deacetylase 1 (Homo sapiens, UniProt Q13547)? O=C(CCCCCCn1nc(C(=O)NC2C3CC4CC(C3)CC2C4)c2ccccc21)NO (stereo not given)
2.96

Could you share what IC50 was measured for O=C(CCCCCCn1cc(C(=O)NC2CCCCCCC2)c2ccccc21)NO , tested on Histone deacetylase 1 (Homo sapiens, UniProt Q13547)?
1.31

Given the entry O=C(NO)c1ccc(Cn2cc(C(=O)NC3C4CC5CC(C4)CC3C5)c3ccccc32)cc1 (stereo not given) , what IC50 was observed with Histone deacetylase 1 (Homo sapiens, UniProt Q13547)?
115

###

In this section we review reported pIC50 values for a set of compounds.
experimental_system: Protein deacetylase HDAC6 (Homo sapiens, UniProt Q9UBN7)
Sequence (Q9UBN7 whole entry): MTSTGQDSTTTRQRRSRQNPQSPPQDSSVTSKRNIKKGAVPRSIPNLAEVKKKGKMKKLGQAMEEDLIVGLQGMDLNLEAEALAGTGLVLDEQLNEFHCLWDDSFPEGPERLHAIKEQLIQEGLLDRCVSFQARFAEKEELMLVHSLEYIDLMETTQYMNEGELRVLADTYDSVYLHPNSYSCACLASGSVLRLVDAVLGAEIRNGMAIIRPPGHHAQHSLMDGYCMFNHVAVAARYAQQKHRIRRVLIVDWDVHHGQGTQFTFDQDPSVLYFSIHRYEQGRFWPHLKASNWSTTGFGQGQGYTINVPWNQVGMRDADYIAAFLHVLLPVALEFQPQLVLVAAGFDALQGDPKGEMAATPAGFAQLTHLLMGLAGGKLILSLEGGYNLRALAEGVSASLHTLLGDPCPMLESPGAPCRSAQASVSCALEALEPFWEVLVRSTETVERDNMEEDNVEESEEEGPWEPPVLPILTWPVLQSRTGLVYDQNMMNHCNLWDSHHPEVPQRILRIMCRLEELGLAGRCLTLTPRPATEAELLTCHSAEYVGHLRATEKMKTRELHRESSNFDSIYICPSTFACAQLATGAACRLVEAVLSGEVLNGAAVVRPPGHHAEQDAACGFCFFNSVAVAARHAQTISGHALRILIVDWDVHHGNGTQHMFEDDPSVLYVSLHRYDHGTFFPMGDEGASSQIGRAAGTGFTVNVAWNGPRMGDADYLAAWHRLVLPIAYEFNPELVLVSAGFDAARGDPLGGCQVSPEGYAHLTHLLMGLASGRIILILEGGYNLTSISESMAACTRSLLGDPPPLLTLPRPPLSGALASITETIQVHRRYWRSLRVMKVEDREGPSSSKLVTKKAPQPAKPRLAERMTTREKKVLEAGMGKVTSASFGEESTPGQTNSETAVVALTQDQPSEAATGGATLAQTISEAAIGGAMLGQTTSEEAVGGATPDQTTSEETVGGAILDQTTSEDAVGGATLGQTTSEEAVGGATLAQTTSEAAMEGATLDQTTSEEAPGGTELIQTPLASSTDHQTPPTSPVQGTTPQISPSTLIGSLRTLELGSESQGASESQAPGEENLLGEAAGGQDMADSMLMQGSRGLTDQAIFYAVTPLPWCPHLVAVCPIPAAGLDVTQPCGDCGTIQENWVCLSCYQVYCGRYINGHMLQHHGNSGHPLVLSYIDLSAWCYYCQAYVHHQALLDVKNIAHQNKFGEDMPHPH
The read-out pIC50 is expressed as -log10 of concentration in moles per litre.

1) O=C(NC1C2CC3CC(C2)CC1C3)c1cn(CCCCCCS)c2ccccc12 (stereo not given) ... 7.72
2) O=C(CCCCCCn1cc(C(=O)NC2CCCCC2)c2ccccc21)NO ... 8.63
3) O=C(CCCCCCn1c(C(=O)NC2C3CC4CC(C3)CC2C4)cc2ccc(Br)cc21)NO (stereo not given) ... 8.33
4) O=C(/C=C/c1ccc(Cn2cc(C(=O)NC3C4CC5CC(C4)CC3C5)c3ccccc32)cc1)NO (stereo not given) ... 7.14
5) O=C(NC1C2CC3CC(C2)CC1C3)c1cn(CCCCCCCS)c2ccccc12 (stereo not given) ... 6.63
6) O=C(CCCCCCn1cc(C(=O)NCc2ccc(Cl)cc2)c2ccccc21)NO ... 8.81
7) O=C(CCCCCCn1cc(C(=O)NC2CCCCCC2)c2ccccc21)NO ... 8.68
8) O=C(CCCCCCn1cc(C(=O)Nc2ccc(Cl)cc2Cl)c2ccccc21)NO ... 8.43
9) O=C(CCCCn1cc(C(=O)NC2C3CC4CC(C3)CC2C4)c2ccccc21)NO (stereo not given) ... 7.40
10) O=C(NO)c1ccc(Cn2cc(C(=O)NC3C4CC5CC(C4)CC3C5)c3ccccc32)cc1 (stereo not given) ... 8.28

What value of measured pIC50 is listed for O=C(CCCCCCn1cc(C(=O)NC2CCCCCCC2)c2ccccc21)NO ?
8.74

I'd like to know its pIC50. The compound in question is O=C(CCCCCCn1c(C(=O)NC2C3CC4CC(C3)CC2C4)cc2cc(Cl)ccc21)NO (stereo not given)
8.16

Please look up its pIC50: O=C(CCCCCCn1cc(C(=O)N2CCOCC2)c2ccccc21)NO
8.12
